# System: HT29 colon
# Assay Info: NCI tumour cell line growth inhibition, 48 h
Experimental Endpoint: log10(TGI) (log10 of the value in µM)
Log10 applied to TGI; unit prior to transform: µM.

# input Supply measured log10(TGI) of "COC(=O)c1ccc(-c2c(C#N)[n+](=O)c3cc(Cl)c(Cl)cc3n2[O-])cc1" in your reply.
# output 1.76

# input Supply measured log10(TGI) of "Cc1nc2ccc(F)cc2c2c1CCN2c1ccc(Cl)cc1" in your reply.
# output 1.35

# input Supply measured log10(TGI) of "[N-]=[N+]=NCc1nc(N)c2c3c(sc2n1)CCCC3" in your reply.
# output 0.50

# input Supply measured log10(TGI) of "C=CN1C(=O)[C@H](Oc2ccccc2)[C@@H]1c1ccccc1" in your reply.
# output 1.84

# input Supply measured log10(TGI) of "COC(C)(C)OCCN1CCN(CCN2C3=C(C=C(C(C)=O)C3)Sc3ccccc32)CC1" in your reply.
# output 1.52

###

compounds and their reported TGI
# Test system: BT-549 breast
# Assay Info: NCI tumour cell line growth inhibition, 48 h
Report only the number, with the unit µM understood.

Solved entries:
| Compound | Unit Of Measurement | Data Value |
| --- | --- | --- |
| CC1(Br)Cc2ccccc2C1=O (stereo unspecified) | µM | 5.03 |
| CCN(Cc1ccc(F)cc1)c1ccc(CO)c(Br)c1 | µM | 29 |

# input Supply measured TGI of "Cc1nc2cc(Nc3nc(Nc4ccc(F)cc4)nc(-c4cccs4)n3)ccc2n1Cc1ccccc1" in your reply.
# output 40.7

###

# Test system: SNB-75 CNS
# Assay Info: NCI tumour cell line growth inhibition, 48 h; in the data active = GI50 below about 0.43 µM; inactive = the rest
Form entry, call: pick from Yes = active, No = inactive

| Compound | Classification |
| --- | --- |
| Cc1ccc2c(C3C(C#N)=C(N)Oc4cc5ccccc5cc43)cc(=O)oc2c1 (centres undefined) | No |

# input Per the assay record, what outcome was assigned to "O=C(Nc1ccc(Cl)c(C(F)(F)F)c1)c1ccc(NC2=C(Cl)C(=O)N(Cc3ccccc3)C2=O)cc1" ?
# output No

# input Per the assay record, what outcome was assigned to COc1cccc2c1C(=O)c1c(O)c3c(c(O)c1C2=O)C[C@@](O)(/C(C)=N/NC(=O)c1ccc(Cl)cc1)C[C@@H]3OC1CC(N)C(O)C(C)O1 (some centres undefined) ?
# output Yes

# input Per the assay record, what outcome was assigned to "CC1(C)N=C(N)N=C(N)N1c1ccc(CCCCc2ccc(Cl)c(S(=O)(=O)F)c2)c(Cl)c1" ?
# output No

# input Per the assay record, what outcome was assigned to CSc1nc(NC2OC(COC(C)=O)C(OC(C)=O)C(OC(C)=O)C2OC(C)=O)c(N=CC=Nc2c(NC3OC(COC(C)=O)C(OC(C)=O)C(OC(C)=O)C3OC(C)=O)nc(SC)n(C)c2=O)c(=O)n1C (centres undefined) ?
# output No

# input Per the assay record, what outcome was assigned to "C/C(=N\NC(=S)N1CCCCCC1)c1ccccn1" ?
# output Yes

# input Per the assay record, what outcome was assigned to C[C@@]12CCC[C@@](C)(C(=O)O)C1CC[C@]13CC(=O)[C@](CO)(C1)[C@@H](O)CC32 (some centres undefined) ?
# output No

# input Per the assay record, what outcome was assigned to CC(C)=CCc1cc(O)cc2c1OC(C=C(C)C)C1=C2C(=O)C2=C(C1=O)S(=O)(=O)CCN2 (centres undefined) ?
# output No

# input Per the assay record, what outcome was assigned to CC(C)OC(=O)[C@H](C)NP(=O)(OC[C@H]1O[C@@H](n2ccc(=O)[nH]c2=O)[C@](C)(F)[C@@H]1O)Oc1ccccc1 (some centres undefined) ?
# output No

###

# System: OVCAR-5 ovarian
# Assay Info: NCI tumour cell line growth inhibition, 48 h
molecules and their reported TGI

Solved entries:
| Molecule | TGI |
| --- | --- |
| COc1ccc(-c2nc3ncccn3c2-c2ccc(SC)cc2)cc1 | 7.06 µM |
| O=C1NC(N/N=C\C(O)C(O)C(O)C(O)CO)=N/C1=C/c1ccc(Cl)cc1 (configuration not stated) | > 100 µM |
| C=C1CC/C=C(\C)CCC[C@H](C)[C@@H](O)[C@@H]2OC(=O)C(=C)[C@@H]2C[C@H]1O | 39.2 µM |
| CN(C)/N=C1/CCC(C(F)(F)F)(C(F)(F)F)O1 | > 100 µM |

# input Supply measured TGI of C[C@]12CCC(=O)C=C1CC[C@@H]1C2CC[C@]2(C)Nc3[nH]ncc3CC12 (some centres not stated) in your reply.
# output > 100 µM

# input Supply measured TGI of Cn1c2c(c3ccccc31)CCN1C(=O)CN(C(=O)C3CCCCC3)CC21 (configuration not stated) in your reply.
# output > 100 µM

# input Supply measured TGI of CC1CN=C(N(C(=O)Nc2ccccc2)c2ccc(Cl)c(Cl)c2)S1 (configuration not stated) in your reply.
# output > 100 µM

###

molecules and their reported TGI
# System: MOLT-4 leukemia
# Assay Info: NCI tumour cell line growth inhibition, 48 h

# input Supply measured TGI of "C=COC(=O)N[C@H]1CCc2cc(OC)c(OC)c(OC)c2-c2ccc(SC)c(=O)cc21" in your reply.
# output > 96.8 µM

###

# Tested on: RPMI-8226 leukemia
# Assay Info: NCI tumour cell line growth inhibition, 48 h
Experimental Endpoint: TGI (µM)
Report only the number, with the unit µM understood.

| Mol | TGI [µM] |
| --- | --- |
| Oc1ccc(Nc2c3ccccc3nc3occ(Cl)c23)cc1 | 4.81 |
| CSc1ccccc1C#C/C=C\C#Cc1ccccc1N | 12.7 |

Now for another entry.
# input Supply measured TGI of "COc1cc(/C=C/C(=O)c2cccc(-n3cc(-c4ccc(Cl)cc4)[nH]c3=O)c2)ccc1O" in your reply.
# output 3.76

###

# Test system: KM12 colon
# Assay Info: NCI tumour cell line growth inhibition, 48 h
Experimental Endpoint: TGI

Solved entries:
| Compound | Data Value |
| --- | --- |
| O=C(CC(C(=O)c1ccsc1)c1ccccc1)c1ccccc1 (stereo unspecified) | > 100 µM |
| COc1cccc2c1C(=O)c1c(O)c3c(c(O)c1C2=O)C[C@@](O)(/C(C)=N/NC(=O)c1ccc(Cl)cc1)C[C@@H]3OC1CC(N)C(O)C(C)O1 (stereo partly specified) | 2.44 µM |
| CCCC(=O)N1CCN(c2ccc3c(c2)OC(C)O3)CC1 (stereo unspecified) | > 100 µM |

# input Report value only: TGI, KM12 colon, Nc1ccn(C2OC(CO)C(O)C2O)c(=O)n1 (stereo unspecified)
# output > 500 µM

# input Report value only: TGI, KM12 colon, "O=C(NNc1ccccc1)C(=O)NNc1ccccc1"
# output > 100 µM

# input Report value only: TGI, KM12 colon, "COc1ccc(-c2nnc(N3CCN(C(=O)CN4CCN(c5ccccc5)CC4)CC3)nc2-c2ccc(OC)cc2)cc1"
# output > 100 µM

# input Report value only: TGI, KM12 colon, C[C@]12CCC(=O)C=C1CC[C@@H]1C2CC[C@]2(C)Nc3[nH]ncc3CC12 (stereo partly specified)
# output > 100 µM

# input Report value only: TGI, KM12 colon, "O=[N+]([O-])c1ccc(-c2cnc3ccccn23)cc1"
# output > 100 µM

# input Report value only: TGI, KM12 colon, "Cn1cnnc1Sc1c([N+](=O)[O-])ncn1C"
# output > 100 µM

# input Report value only: TGI, KM12 colon, "CCOC(=O)Cc1ccc(Nc2nc3ccccc3nc2C(=O)OCC)cc1"
# output > 100 µM

# input Report value only: TGI, KM12 colon, "Cc1cc2cc3c(=O)[nH]c(=O)[nH]c3nc2cc1C"
# output > 100 µM

# input Report value only: TGI, KM12 colon, "COc1ccccc1Nc1ncc(-c2ccccc2)o1"
# output > 25 µM

# input Report value only: TGI, KM12 colon, "Cc1cc(C(F)(F)F)cc(-n2nc(NS(=O)(=O)c3cc(C)c(Cl)cc3S)nc2N)n1"
# output > 100 µM

# input Report value only: TGI, KM12 colon, "NCC(=O)Nc1ccc(S(=O)(=O)O)c2cc(S(=O)(=O)O)cc(S(=O)(=O)O)c12"
# output > 100 µM

# input Report value only: TGI, KM12 colon, CCOC(=O)C1SC(=Nc2ccccc2)N=C1C (stereo unspecified)
# output > 100 µM

###

# Test system: NCI/ADR-RES ovarian
# Assay Info: NCI tumour cell line growth inhibition, 48 h; in the data active = GI50 below about 0.43 µM; inactive = the rest
Form entry, call: pick from active, inactive

As a guide, the following entries are already answered.
| Compound | Classification |
| --- | --- |
| COc1cc(/C=C\c2cc(OC)c(OC)c(OC)c2)cc(N/C=C\C(=O)c2cc(OC)c(OC)c(OC)c2)c1OC | inactive |
| CCOC(=O)/C=C/c1ccc(C#Cc2ccccc2)cc1 | inactive |
| CCc1ccc(/C=C/c2ccc(O)c3ncccc23)[n+](C)c1 | inactive |
| C[C@@]12CCC[C@@](C)(C(=O)O)C1CC[C@]13CC(=O)[C@](CO)(C1)[C@@H](O)CC32 (some centres undefined) | inactive |
| CC1(C)N=C(N)N=C(N)N1c1ccc(CCCCc2ccc(Cl)c(S(=O)(=O)F)c2)c(Cl)c1 | inactive |

# input Per the assay record, what outcome was assigned to COc1ccc(-c2nsc3c2NC(=O)CC3c2cccc(OC)c2)cc1 (centres undefined) ?
# output active

# input Per the assay record, what outcome was assigned to COc1cccc2c1C(=O)c1c(O)c3c(c(O)c1C2=O)C[C@@](O)(/C(C)=N/NC(=O)c1ccc(Cl)cc1)C[C@@H]3OC1CC(N)C(O)C(C)O1 (some centres undefined) ?
# output inactive

# input Per the assay record, what outcome was assigned to "Cc1cc(N(CCCNc2ccnc3cc(Cl)ccc23)Cc2ccc3c(c2)OCO3)nc(N2CCOCC2)n1" ?
# output inactive

# input Per the assay record, what outcome was assigned to Nc1ccn(C2OC(CO)C(O)C2O)c(=O)n1 (centres undefined) ?
# output inactive
